# Test system: HOP-62 NSCLC
# assay: NCI tumour cell line growth inhibition, 48 h; in the data active = GI50 below about 0.43 µM; inactive = the rest
Select the matching outcome among yes for active, no for inactive

Exercise: Call for entry `O=C1C(=O)c2c(nc3ncccn23)-c2ccccc21` :
Solution: yes

====

# System: A549 NSCLC
# assay: NCI tumour cell line growth inhibition, 48 h
assay-metric: GI50

Past entries and their recorded results:
compound: CN1c2ccccc2C(C)(C)C12CC(c1ccc(Cl)c(S(=O)(=O)N3CCCC3)c1)=NO2 (stereo not given)
target-or-system: A549 NSCLC
value-reported: > 100 µM
--
compound: CCOC(=O)c1cnc2c(cnn2CC)c1NN=C(C)C
target-or-system: A549 NSCLC
value-reported: 40.1 µM
--
compound: COc1ccc(/C=C/C(c2cc(OC)c(OC)c(OC)c2)n2cncn2)cc1O (stereo not given)
target-or-system: A549 NSCLC
value-reported: 4.56 µM
--
compound: CCCCC#Cc1cccc(=O)o1
target-or-system: A549 NSCLC
value-reported: 45.6 µM

Now consider a different compound.
Exercise: Which value of GI50 has been reported for CC(=O)OC1=C2C(CC3C4CC=C5CC(OC(C)=O)CCC5(C)C4CCC23C)C2C(=O)N(Cc3ccccc3)C(=O)C2C1 (stereo not given) in the records?
Solution: 4.33 µM

From: PubChem BioAssay (NCI)
